Target: GLP-1R in a pancreatic insulinoma cell line (EndoC-PH1) (Homo sapiens, UniProt P43220)
Sequence (P43220 24-463): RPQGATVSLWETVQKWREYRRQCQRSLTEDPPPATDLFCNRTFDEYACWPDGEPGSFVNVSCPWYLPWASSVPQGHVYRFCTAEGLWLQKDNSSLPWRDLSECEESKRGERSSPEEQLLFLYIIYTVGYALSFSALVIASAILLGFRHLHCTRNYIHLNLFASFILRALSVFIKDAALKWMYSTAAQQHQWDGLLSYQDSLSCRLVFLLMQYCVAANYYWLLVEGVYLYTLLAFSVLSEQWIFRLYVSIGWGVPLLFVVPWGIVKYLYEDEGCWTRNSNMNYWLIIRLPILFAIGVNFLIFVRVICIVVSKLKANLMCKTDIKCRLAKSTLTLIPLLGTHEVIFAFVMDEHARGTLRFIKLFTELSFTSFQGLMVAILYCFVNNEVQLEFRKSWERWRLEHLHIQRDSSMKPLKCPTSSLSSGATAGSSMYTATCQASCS
Test Details: EndoC cAMP Accumulation Assay (HTRF)
Test Settings: EndoC-PH1 human pancreatic beta cell line, endogenous GLP-1R, 30 min at rt
Would you kindly list EC50 for each of these compounds?
Kindly provide the numeric value in nM only, without the unit symbol.

So what does the record say about EC50 for C[C@]1(c2ccc(Cl)cn2)Oc2cccc(N3CCN(Cc4nc5ccc(C(=O)O)cc5n4C[C@@H]4CCO4)[C@H]4CC[C@@H]43)c2O1 (single isomer, unassigned) [Example 22b] ?
18

Here is the next compound: C[C@]1(c2ccc(Cl)cn2)Oc2cccc(N3CCN(Cc4nc5c(F)cc(C(=O)O)cc5n4CC4(CC#N)CC4)[C@H]4CC[C@@H]43)c2O1 (single isomer, unassigned) [Example 23d]
7.6

Here is the next compound: COc1cc(C(=O)O)cc2c1nc(CN1CCN(c3cccc4c3O[C@@](C)(c3ccc(Cl)cn3)O4)[C@H]3CC[C@@H]31)n2C[C@@H]1CCCO1 (single isomer, unassigned) [Example 7c]
32

----------
Target: human GLP-1R receptor (Homo sapiens, UniProt P43220, L260F)
Sequence (P43220 24-463 L260F): as the sequence (P43220 24-463) above, with L237F counted along it
Test Details: CHOK1 GLP-1R cAMP Assay (HTRF)
Test Settings: CHO-K1 cells stably expressing human GLP-1R (Leu260Phe variant), 20 min at rt
Would you kindly list EC50 for each of these compounds?
Kindly provide the numeric value in nM only, without the unit symbol.

So what does the record say about EC50 for COc1cc(C(=O)O)cc2c1nc(CN1CCN(c3cccc4c3O[C@@](C)(c3ccc(Cl)cn3)O4)[C@@H]3CC[C@@H]31)n2C[C@@H]1CCCO1 (relative stereo) [Example 8b] ?
400

Here is the next compound: C[C@]1(c2ccc(Cl)cn2)Oc2cccc(N3CCN(Cc4nc5c(Cl)cc(C(=O)O)cc5n4C[C@@H]4CCO4)[C@H]4CC[C@H]43)c2O1 (single isomer, unassigned) [Example 20d]
2.5

Here is the next compound: C[C@]1(c2ccc(Cl)cn2)Oc2cccc(N3CCN(Cc4nc5c(F)cc(C(=O)O)cc5n4C[C@@H]4CCO4)[C@H]4CC[C@H]43)c2O1 (single isomer, unassigned) [Example 1c]
2.2

Where do these numbers come from? They come from patent US20240417393A1.
